biological target: NMDA associated strychnine-insensitive glycine modulatory site (Rattus norvegicus); construct: cortical tissue obtained from male Sprague Dawley rats; assay: biochemical; conditions: 2.5 nM [3H]TCP, L-glutamic acid 10^-7 M; read-out: ENHANCEMENT OF [3H]TCP BINDING EC50
Counter-ions that a name gives are not always drawn.
Quantity Kind: EC50 (µM)
Give the value in µM but do not write µM after it.

Worked examples, 5 molecules total:
CC(=O)c1cccn1NC(=O)CN [Hydrochloride] | 1.3
NCC(=O)Nn1cccc1C(=O)c1cccc(F)c1.O=C(O)/C=C/C(=O)O [fumarate] | 0.6
NCC(=O)Nn1cccc1C(=O)c1ccccc1Cl [hydrochloride] | 3
NCC(=O)Nn1c(Cl)ccc1C(=O)c1ccccc1F [hydrobromide] | 1.7
COc1ccc(C(=O)c2cccn2NC(=O)CN)cc1 | 2

Problem: Item NCC(=O)Nn1cccc1C(=O)c1cccs1 [Hydrochloride] : provide EC50
Result: 0.38

Problem: Name the recorded EC50 of the item NCC(=O)Nn1cccc1C(=O)c1ccccc1F [hydrobromide hemihydrate] in your answer.
Result: 3.1

Problem: Provide measured EC50 value, entry: Cl.NCC(=O)Nn1cccc1 [Hydrochloride]
Result: 92

---

target: glycine binding site associated with the N-methyl-D-aspartate (NMDA) receptor complex (Rattus norvegicus, UniProt P35439); construct: Cortices of male Wistar rats are dissected over ice; experiment: biochemical
Structures can show the parent of a compound that is named as a salt.
Returns: string. Value is YES if measured IC50 is below 10 µM, and NO if it is greater than or equal to it.

As a guide, the following entries are already answered.
Cl.NCC(=O)Nn1cccc1 [Hydrochloride] | NO
NCC(=O)Nn1c(Cl)ccc1C(=O)c1ccccc1F [hydrobromide] | YES
NCC(=O)Nn1cccc1C(=O)c1cccc(F)c1.O=C(O)/C=C/C(=O)O [fumarate] | YES

Problem: In plain terms, does NCC(=O)Nn1cccc1C(=O)c1cccs1 [Hydrochloride] come in under 10 µM for IC50?
Result: YES

Problem: Does COc1ccc(C(=O)c2cccn2NC(=O)CN)cc1 have IC50 strictly under 10 µM?
Result: YES

Problem: Threshold test, IC50 < 10 µM: NCC(=O)Nn1cccc1C(=O)c1ccccc1Cl [hydrochloride]
Result: NO

Problem: Threshold test, IC50 < 10 µM: CC(=O)c1cccn1NC(=O)CN [Hydrochloride]
Result: NO

Problem: Consider NCC(=O)Nn1cccc1C(=O)c1ccccc1F [hydrobromide hemihydrate] . Does its IC50 lie strictly below 10 µM?
Result: NO

---

assay: Enhancement of step-down passive avoidance in rats; assay type: in vivo, rat (male Sprague Dawley); conditions: 10 mg/kg, ip, 30 min prior; 24 hrs after acquisition
Where a name gives a salt, the structure may show the parent alone.
Recorded % Change from Control (median latency to step-down) by entry

// known answers, use as guide
COc1ccccc1C(=O)c1cccn1NC(=O)CN.Cl | +37%
NCC(=O)Nn1cccc1C(=O)c1ccccc1F [hydrobromide hemihydrate] | +471%
Cl.NCC(=O)Nn1cccc1Cl | +158%
NCC(=O)Nn1cccc1C(=O)c1cccc(F)c1.O=C(O)/C=C/C(=O)O | +343%
NCC(=O)Nn1cccc1C(=O)c1ccccc1C(F)(F)F [hydrobromide] | +77%

Problem: Could you please provide reported % Change from Control (median latency to step-down) for Cl.NCC(=O)Nn1cccc1 ? Thanks!
Result: +281%

The reported measurements were obtained from patent US5428053A.
